# GI50 per entry
- System: LOX IMVI
- assay.notes: NCI tumour cell line growth inhibition, 48 h
The source made the active and inactive calls. Cut-off read from the data, not from the text of the source: active = GI50 up to about 1.1 µM and inactive = higher.

Example entries and their recorded answers appear below.
>>> print(df.to_string())
                                   compound  measure               result
0  CSC1=C(C#N)C(=O)N(c2ccc(C)cc2)C(=O)C1C#N (configuration not stated)     GI50  > 100 µM (inactive)
1  COC(C(=O)NCCCCNC(=O)C(OC)c1ccccc1)c1ccccc1 (configuration not stated)     GI50  > 100 µM (inactive)

Next, consider the following compound.
Enquiry: Can you share its GI50? I mean this compound: Cc1ccnc(Nc2[nH]c(C(=O)c3ccc(Cl)cc3)c(N)c2C(=S)Nc2ccccc2)c1
Return: 14.8 µM (inactive)

---

- Test system: SF-295
- assay.notes: NCI tumour cell line growth inhibition, 48 h
Calls of active or inactive are those of the source. Cut-off read from the data, not from the text of the source: active = GI50 up to about 1.1 µM and inactive = higher.
measure: GI50

                                   molecule              result
0  CN(C)c1ccc(C2CC(c3ccc4ccccc4c3O)=NN2c2ccc([N+](=O)[O-])cc2[N+](=O)[O-])cc1 (stereo unspecified)  40.1 µM (inactive)
1             CCC1=[N+]([O-])C(C)(C)NC1(C)C  > 10 µM (inactive)
2        COc1cc(/C=C\c2ccc(O)cc2)cc(OC)c1OC  2.47 µM (inactive)
3            O=C(/C=C/c1ccccc1Cl)c1ccccc1Cl  22.6 µM (inactive)

Enquiry: Can you share its GI50? I mean this molecule: O=C(OCC1CO1)c1cccs1 (stereo unspecified)
Return: > 100 µM (inactive)

Enquiry: // next record CCNC(=O)Nc1ccccn1
Return: > 100 µM (inactive)

Enquiry: // next record O=C1C(Cl)=CC2(C=C1Cl)CCNC1=C2C(=O)c2nc[nH]c2C1=O
Return: > 100 µM (inactive)

Enquiry: // next record O=C1Nc2ccccc2/C1=N/N=c1\cccc[nH]1
Return: 51.9 µM (inactive)

Enquiry: // next record Cc1ccccc1-c1c(N)nc(N)nc1C(=O)Nc1nccs1
Return: > 100 µM (inactive)

Enquiry: // next record O=C1C=C2SC3C[C@@]24CC1[N+]1=c2c4c(c(O)c4c2=C(C=N4)CC1)N3
Return: 3.43 µM (inactive)

Enquiry: // next record Nc1cccc(/C=C/CN2CCN(CCOC(c3ccccc3)c3ccccc3)CC2)c1
Return: 17.4 µM (inactive)

---

- Test system: LOX IMVI
- assay.notes: NCI tumour cell line growth inhibition, 48 h
The source made the active and inactive calls. Rule as the data show it: active = GI50 up to about 1.1 µM and inactive = higher.
# GI50 per entry

Example entries and their recorded answers appear below.
compound	GI50
Cc1c2c(n(CC(c3ccccc3)c3ccccc3)c1C)NN=C(C#N)S2(=O)=O	> 100 µM (inactive)
Cc1ncc(CO)c(CN)c1O	> 100 µM (inactive)
O=CNc1ccc(S(=O)(=O)c2ccc(NC=O)cc2)cc1	> 100 µM (inactive)
O=c1cc(C(F)(F)F)c2cc3c(cc2o1)NCCC3	> 100 µM (inactive)
COC(=O)CCC1(O)C=CC(=O)C=C1	30.3 µM (inactive)
O=C(Nc1cc(Cl)ccc1Cl)C(=O)C(c1cnc2ccccc2n1)[N+](=O)[O-] (stereo not given)	> 100 µM (inactive)
O=C(O)c1ccc(C2=Cc3cc(Cl)ccc3OC2)cc1	> 100 µM (inactive)
COc1cc(/C=C\c2ccc(O)cc2)cc(OC)c1OC	5.19 µM (inactive)
C[n+]1ccc(/C2=C3\C=CC(=N3)/C(c3cc[n+](C)cc3)=c3/cc/c([nH]3)=C(\c3cc[n+](C)cc3)C3=N/C(=C(/c4cc[n+](C)cc4)C4C=CC2N4)C=C3)cc1	> 100 µM (inactive)
[O-]c1c[n+](CCCC[n+]2cc([O-])on2)no1	> 100 µM (inactive)

Next, consider the following compound.
Enquiry: For LOX IMVI, provide GI50 of Clc1ccc(C2=CC(c3ccccc3)N3C(=N[C@H]4CCCC[C@@H]43)N2)cc1 (stereo not given in full) please.
Return: 6.46 µM (inactive)

---

# GI50 per entry
- System: HCC 2998
- assay.notes: NCI tumour cell line growth inhibition, 48 h
Active and inactive are the calls of the source. No stated cut-off is given here; in the data, active = GI50 up to about 1.1 µM and inactive = higher.

Example entries and their recorded answers appear below.
molecule	result
COc1ccc(NC(=O)Oc2cc(C)c3ccc(=O)cc-3o2)c(OC)c1.COc1ccc(NC(=O)Oc2ccc3c(C)cc(=O)oc3c2)c(OC)c1	82.8 µM (inactive)
CCN(CC)CCCn1cnc2ncccc2c1=O	> 10 µM (inactive)
O=c1c2cc(S(=O)(=O)Nc3ccccc3Cl)ccc2ncn1NS(=O)(=O)c1ccc(Br)cc1	> 37.5 µM (inactive)
NNC(=O)/C(NC(=O)c1ccccc1)=C(\N)c1ccc(Cl)cc1	> 100 µM (inactive)
Cc1ccccc1-c1c(N)nc(N)nc1C(=O)Nc1nccs1	> 100 µM (inactive)
O=C(OCC1CO1)c1cccs1 (stereo unspecified)	> 100 µM (inactive)

Next, consider the following molecule.
Enquiry: Can you share its GI50? I mean this molecule: COC(=O)[C@@]12C3=NO[C@]1(C(=O)OC)C(O[Si](C)(C)C(C)(C)C)[C@H]1OC(C)(C)O[C@H]1[C@@H]2C(OCc1ccccc1)CC3 (stereo partly specified)
Return: 63.1 µM (inactive)

---

- System: HL-60
- assay.notes: NCI tumour cell line growth inhibition, 48 h
Active and inactive are the calls of the source. Rule as the data show it: active = GI50 up to about 1.1 µM and inactive = higher.
Result category, one only: active, inactive

Consider the following illustrative entries.
compound	class.label
CCNC(=O)Nc1ccccn1	inactive
CCCCCCCCCCCCCC(=O)NO	inactive
C=C1C(=O)O[C@@H]2[C@@H]3O[C@@H](C[C@@H]13)[C@](C)(O)CC/C=C(\C)CCC[C@@H]2C	inactive

Enquiry: Per the assay record, what outcome was assigned to O=[N+]([O-])c1cccc(C2N3CCCCC3[C@@H]3c4[nH]c5ccccc5c4CCN23)c1 (stereo partly specified) ?
Return: inactive

Enquiry: // next record Cc1ccc2c(c1)CC1(Cc3cccc(C)c3C1=O)C2=O (stereo unspecified)
Return: inactive

Enquiry: // next record CSC1=C(C#N)C(=O)N(c2ccc(C)cc2)C(=O)C1C#N (stereo unspecified)
Return: inactive

Enquiry: // next record C=C1C(=O)OC2C3C(=C)[C@@H](OC(C)=O)CC3C(C)=CC(OC(=O)C(C)(OC(C)=O)C(C)OC(C)=O)[C@@H]12 (stereo partly specified)
Return: inactive

Enquiry: // next record COC(=O)[C@@]12C3=NO[C@]1(C(=O)OC)C(O[Si](C)(C)C(C)(C)C)[C@H]1OC(C)(C)O[C@H]1[C@@H]2C(OCc1ccccc1)CC3 (stereo partly specified)
Return: inactive

Enquiry: // next record O=c1c(Nc2ccccc2)cn(CCOc2ccccc2)c(=O)n1CCOc1ccccc1
Return: inactive

Enquiry: // next record O=C(O)c1ccc(C2=Cc3cc(Cl)ccc3OC2)cc1
Return: inactive

Enquiry: // next record O=C1C(=C(I)I)c2ccccc2-c2ccccc21
Return: active

Enquiry: // next record COc1ccc(/C=C/C(=O)c2c(-c3ccccc3)nn(C)c(=O)c2N2CCOCC2)cc1
Return: inactive

Enquiry: // next record CC1(C)OC2[C@@H](CO[C@@]3([C@H]4OC(C)(C)O[C@@H]4CO)OC(C)(C)O[C@@H]23)O1 (stereo partly specified)
Return: inactive

Enquiry: // next record C=CCNC1=NC(=O)C(CC(=O)Nc2ccc([N+](=O)[O-])cc2[N+](=O)[O-])S1 (stereo unspecified)
Return: inactive

Enquiry: // next record Cc1nc(Nc2ccc(Cl)cc2)sc1C(=O)NNC(=O)C(=O)NN
Return: inactive

Enquiry: // next record CN(CC(=O)O)Cc1c[nH]c2ccccc12
Return: inactive

Enquiry: // next record O=C(/C=C1\Nc2ccccc2C(=O)N1c1ccc(Cl)cc1)c1ccncc1
Return: inactive

Enquiry: // next record Cn1c(=O)c2nc(Nc3ccccc3)[nH]c2n(C)c1=O
Return: inactive

Enquiry: // next record CC(=O)n1nc(-c2ccccc2)n(/N=C/c2ccc([N+](=O)[O-])cc2)c1=O
Return: inactive

Enquiry: // next record CCOC(=O)C1Cc2ccc(C)cc2C1=O (stereo unspecified)
Return: inactive

Enquiry: // next record C=CCNC1=C2C[C@@H](C)C[C@@H](OC)[C@H](OC(=O)CCCCN)[C@H](C)/C=C(\C)[C@@H](OC(N)=O)[C@H](OC)/C=C\C=C(/C)C(=O)NC(=CC1=O)C2=O
Return: inactive

---

- Tested on: RXF 393
- assay.notes: NCI tumour cell line growth inhibition, 48 h
Activity calls are given as the source filed them. Rule as the data show it: active = GI50 up to about 1.1 µM and inactive = higher.
Result category, one only: active, inactive

Enquiry: Per the assay record, what outcome was assigned to OC(Cc1cccnc1)(c1ccccc1)c1ccccc1 ?
Return: inactive

Enquiry: // next record Oc1ccc(-c2nc3ccccc3s2)cc1
Return: inactive
